Biological target: T1, CDH6 on OVCAR3 cells (human, UniProt P55285 54-790)
T1 construct: whole, on cells; also called CDH6 positive cells OVCAR3; CDH6 high-expression cell strain
T1 sequence (looked up): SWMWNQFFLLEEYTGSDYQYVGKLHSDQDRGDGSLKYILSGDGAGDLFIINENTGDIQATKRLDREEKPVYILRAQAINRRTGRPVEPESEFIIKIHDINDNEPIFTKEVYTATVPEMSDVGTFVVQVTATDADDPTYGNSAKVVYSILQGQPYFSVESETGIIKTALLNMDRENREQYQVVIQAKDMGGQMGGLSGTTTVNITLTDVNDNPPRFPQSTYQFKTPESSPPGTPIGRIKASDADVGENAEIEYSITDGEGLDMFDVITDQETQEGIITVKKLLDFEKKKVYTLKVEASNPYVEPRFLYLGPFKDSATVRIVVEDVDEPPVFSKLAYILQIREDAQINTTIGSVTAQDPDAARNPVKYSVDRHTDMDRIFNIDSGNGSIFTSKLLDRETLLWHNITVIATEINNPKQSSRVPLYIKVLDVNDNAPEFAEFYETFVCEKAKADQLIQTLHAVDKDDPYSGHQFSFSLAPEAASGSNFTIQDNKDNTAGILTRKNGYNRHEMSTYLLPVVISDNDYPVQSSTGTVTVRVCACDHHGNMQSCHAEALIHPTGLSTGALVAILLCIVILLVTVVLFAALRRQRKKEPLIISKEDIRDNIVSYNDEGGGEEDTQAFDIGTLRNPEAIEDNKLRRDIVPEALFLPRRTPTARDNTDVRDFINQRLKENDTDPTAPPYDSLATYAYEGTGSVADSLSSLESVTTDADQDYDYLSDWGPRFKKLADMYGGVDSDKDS
Assay: flow cytometry (FACS) on OVCAR3 cells, Alexa Fluor 647 anti-human Fc secondary antibody, MFI, four-parameter fit
Readout label: pEC50
Scale note: pEC50 = -log10(concentration in M).

Binder	pEC50
ADC-L1-19-5 (antibody, human IgG1, kappa, V domains shown, drug-linker L1-19 on cysteine thiols after TCEP reduction; positions not given; DAR 6.8 for the whole conjugate, Antibody-drug conjugate) VH: EVQLVQSGAEVKKPGASVKVSCKASGYTFTDNYINWVRQAPGQRLEWMGWIYPGTGNSYYNEKFKGRVTITVDTSASTAYMELSSLRSEDTAVYLCASSYGDSFDYWGQGTTVTVSS VL: DIVMTQSPDSLAVSLGERATINCRASQDIRNYLNWYQQKPGQTPKLLISYTSRLHSGVPDRFSGSGSGTDFTLTISSLQAEDVAVYYCQQYSQLPWTFGGGTKVEIKR	9.29

Lookup: Data request, read-out pEC50, for ADC-L1-19-3 (antibody, human IgG1, kappa, V domains shown, drug-linker L1-19 on cysteine thiols after TCEP reduction; positions not given; DAR 7.1 for the whole conjugate, Antibody-drug conjugate) VH: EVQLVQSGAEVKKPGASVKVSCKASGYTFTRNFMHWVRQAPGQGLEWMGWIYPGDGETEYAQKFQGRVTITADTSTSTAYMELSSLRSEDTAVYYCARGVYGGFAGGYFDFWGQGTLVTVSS VL: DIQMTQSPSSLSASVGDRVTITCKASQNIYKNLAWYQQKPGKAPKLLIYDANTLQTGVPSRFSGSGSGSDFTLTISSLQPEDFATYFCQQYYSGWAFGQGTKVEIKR
Found: 9.47

Lookup: Now consider CDH6-Ab-2 (antibody, human IgG1, kappa, V domains shown, also called humanized anti-human CDH6 antibody CDH6-Ab-2) VH: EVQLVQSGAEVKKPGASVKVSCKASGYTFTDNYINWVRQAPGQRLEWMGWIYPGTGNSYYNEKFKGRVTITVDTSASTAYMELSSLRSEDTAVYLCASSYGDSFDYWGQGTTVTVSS VL: DIVMTQSPDSLAVSLGERATINCRASQDIRNYLNWYQQKPGQTPKLLISYTSRLHSGVPDRFSGSGSGTDFTLTISSLQAEDVAVYYCQQYSQLPWTFGGGTKVEIKR and answer again.
Found: 9.20

Lookup: Request: ADC-L1-19-P1-3 (antibody, human IgG1, kappa, V domains shown, drug-linker L1-19-P1 on cysteine thiols after TCEP reduction; positions not given; DAR 7.2 for the whole conjugate, Antibody-drug conjugate) VH: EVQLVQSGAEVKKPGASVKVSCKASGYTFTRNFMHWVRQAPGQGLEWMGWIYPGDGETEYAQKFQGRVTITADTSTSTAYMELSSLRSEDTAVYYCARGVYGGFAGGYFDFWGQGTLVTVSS VL: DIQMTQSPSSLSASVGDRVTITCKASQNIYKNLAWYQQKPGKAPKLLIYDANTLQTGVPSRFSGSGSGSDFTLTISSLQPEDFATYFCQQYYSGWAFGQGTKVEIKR
Found: 9.44

Lookup: Likewise for CDH6-Ab-3 (antibody, human IgG1, kappa, V domains shown, also called humanized anti-human CDH6 antibody CDH6-Ab-3) VH: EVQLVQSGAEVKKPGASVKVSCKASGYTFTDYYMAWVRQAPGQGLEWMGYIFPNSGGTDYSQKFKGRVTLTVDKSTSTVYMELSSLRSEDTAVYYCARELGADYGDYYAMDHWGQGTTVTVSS VL: DIQMTQSPSSLSASVGDRVTITCRASENIDSYLAWYQQKPGKSPKLLVYSATLLADGVPSRFSGSGSGTDYTLTISSLQPEDFATYYCQHYYRTPPTFGQGTKLEIKR ?
Found: 9.11

Source listed as patent US20250304717A1.
